Molecular target: human RXFP1 (Homo sapiens)
Sequence (Q9HBX9 1-757): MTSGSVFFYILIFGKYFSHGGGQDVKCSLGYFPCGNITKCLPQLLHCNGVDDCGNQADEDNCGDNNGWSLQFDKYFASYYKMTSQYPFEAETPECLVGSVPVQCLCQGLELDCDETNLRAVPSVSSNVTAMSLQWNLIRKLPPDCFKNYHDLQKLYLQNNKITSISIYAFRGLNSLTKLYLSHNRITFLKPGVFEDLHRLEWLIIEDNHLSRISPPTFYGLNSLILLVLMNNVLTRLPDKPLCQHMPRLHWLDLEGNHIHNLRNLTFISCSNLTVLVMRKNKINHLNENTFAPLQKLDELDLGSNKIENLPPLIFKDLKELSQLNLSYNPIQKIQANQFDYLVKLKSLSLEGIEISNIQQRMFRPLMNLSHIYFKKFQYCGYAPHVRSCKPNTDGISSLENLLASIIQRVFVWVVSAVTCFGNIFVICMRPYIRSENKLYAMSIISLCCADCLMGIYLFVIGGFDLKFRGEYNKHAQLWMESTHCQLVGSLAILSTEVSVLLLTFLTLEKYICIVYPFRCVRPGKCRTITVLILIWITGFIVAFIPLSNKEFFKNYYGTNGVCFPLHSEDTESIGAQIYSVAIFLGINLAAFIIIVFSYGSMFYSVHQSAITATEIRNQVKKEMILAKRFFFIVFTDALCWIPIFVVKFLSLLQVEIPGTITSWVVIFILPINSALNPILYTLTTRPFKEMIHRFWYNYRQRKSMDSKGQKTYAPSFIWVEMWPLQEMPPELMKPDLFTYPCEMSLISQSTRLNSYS
Test: hRXFP1 HEK293 cAMP assay (HTRF)
Details: HEK293 cells stably expressing human RXFP1; 30 min at rt; intracellular cAMP by HTRF
pEC50: −log10 of the molar value.
attribute.measured: pEC50

Please review the following examples before continuing.
compound: COC(=O)C1CC(c2ccc(OC)c(C(=O)Nc3c(C(=O)Nc4ccc(F)c(C(F)(F)F)c4)sc4cc(C(F)(F)F)ccc34)c2)=NO1 (stereo not drawn)
test.target: human RXFP1 (Homo sapiens)
pEC50: 6.20
//
compound: COc1cc(F)c(C(=O)N2CC3(COC3)C2)cc1C(=O)Nc1c(C(=O)Nc2ccc(F)c(C(F)(F)F)c2)sc2cc(C(F)(F)F)ccc12
test.target: human RXFP1 (Homo sapiens)
pEC50: 6.13
//
compound: COc1ccc(C2CCCC(C)(O)C2)cc1C(=O)Nc1c(C(=O)Nc2ccc(F)c(C(F)(F)F)c2)sc2cc(C(F)(F)F)ccc12 (single isomer, unassigned) [Example 36]
test.target: human RXFP1 (Homo sapiens)
pEC50: 6.61

(A) COCCNC(=O)c1ccc(OC)c(C(=O)Nc2c(C(=O)Nc3ccc(F)c(C(F)(F)F)c3)sc3cc(C(F)(F)F)ccc23)c1
(B) COc1ccc(C2CCN(C(=O)CO)C2)cc1C(=O)Nc1c(C(=O)Nc2ccc(F)c(C(F)(F)F)c2)sc2cc(C(F)(F)F)ccc12 (stereo not drawn) [Example 141]
// max by pEC50 over [ A , B ] # answer = label of selected item
B

(1) COc1ccc(C2CC3(C2)CN(C(=O)CC(C)(C)O)C3)cc1C(=O)Nc1c(C(=O)Nc2ccc(F)c(C(F)(F)F)c2)sc2cc(C(F)(F)F)ccc12
(2) COc1ccc(C2CCN(CC(N)=O)C2)cc1C(=O)Nc1c(C(=O)Nc2ccc(F)c(C(F)(F)F)c2)sc2cc(C(F)(F)F)ccc12 (stereo not drawn) [Example 147]
Look at 1 and 2 . Which one has the lower recorded pEC50 number? # answer = label of selected item
2

(1) COc1ccc(C(=O)NCCS(C)(=O)=O)cc1C(=O)Nc1c(C(=O)Nc2ccc(F)c(C(F)(F)F)c2)sc2cc(C(F)(F)F)ccc12
(2) COc1ccc(C2CCCC(NC3COC3)C2)cc1C(=O)Nc1c(C(=O)Nc2ccc(F)c(C(F)(F)F)c2)sc2cc(C(F)(F)F)ccc12 (single isomer, unassigned) [Example 60]
// max by pEC50 over [ 1 , 2 ] # answer = label of selected item
2
(2: 6.13, 1: 5.32)

(A) COc1ccc(C(=O)N2CCOCC2)cc1C(=O)Nc1c(C(=O)Nc2ccc(F)c(C(F)(F)F)c2)sc2cc(C(F)(F)F)ccc12
(B) COc1ccc(-c2cc(CNS(C)(=O)=O)ccc2F)cc1C(=O)Nc1c(C(=O)Nc2ccc(F)c(C(F)(F)F)c2)sc2cc(C(F)(F)F)ccc12
// max by pEC50 over [ A , B ] # answer = label of selected item
B

Entry source: patent US20260265233A1
